Values compiled from PubChem BioAssay (NCI).

Tested on: HCC-2998 colon
Assay notes: NCI-60 one-dose screen, 48 h
Details: 10 µM unless noted
Compounds without any hit were thinned out: in the full panel of roughly 83,000, 20% have a hit. Active and inactive are the calls of the source. Rule for the calls: active = growth percent below 10; inactive = the rest.
Permitted responses: YES (active), NO (inactive)

Lab log entry: Cc1cc(Nc2nc(N3CCNCC3)nc3ccccc23)n[nH]1 — outcome as called in the assay?
NO

Lab log entry: COC1=CC(=O)C(OC)=C(OC)C1=O — outcome as called in the assay?
NO

Lab log entry: CCCCCCCCCCCCCCCC[N+]1(CC)CCCC1 — outcome as called in the assay?
YES

Lab log entry: COc1ccc(-n2c(C)nc3c(c(C)nn3-c3ccccc3)c2=O)cc1 — outcome as called in the assay?
NO

Lab log entry: CCCCCCCCCCCCCCCCCCNC(=O)[C@H]1CSC(c2ccc(OC)c(F)c2)N1 (stereo not given in full) — outcome as called in the assay?
YES

Lab log entry: CC(=O)Nc1ccc2c(c1)c(NC(C)=O)nn2C(=O)Nc1ccc(Cc2ccccc2)cc1 — outcome as called in the assay?
NO

Lab log entry: CCN(CC)CC(C)Nc1ccc([N+](=O)[O-])c2sc3ccccc3c(=O)c12 (stereo not given) — outcome as called in the assay?
NO

Lab log entry: CC1CN(C(C)C)C(=S)N(c2ccccc2)C1=O (stereo not given) — outcome as called in the assay?
NO

Lab log entry: C=C(C[n+]1ccccc1)[C@@H]1CC[C@]2(C(=O)OC)CC[C@]3(C)[C@H](CC[C@@H]4[C@@]5(C)CC[C@H](O)C(C)(C)[C@@H]5CC[C@]43C)[C@@H]12 — outcome as called in the assay?
NO

Lab log entry: Oc1ccc(Nc2nccc(-c3ccc4ccccc4c3)n2)cc1 — outcome as called in the assay?
NO

* * *

Test system: MDA-MB-231 breast
Assay notes: NCI-60 one-dose screen, 48 h
Details: 10 µM unless noted
Protocol: Cells are grown in 96 well plates and exposed to the test compound for 48 hours. Compounds are tested at a single concentration, which is 10^-5 M for most compounds. The reported endpoint is percent growth (GI% or GIPRCNT), where numbers from 0 - 100% represent growth inhibition, and numbers from -100% - 0 represent cell death. For example, a value of 40 represents 60% growth inhibition. A value of 0 means no net growth occurred over the course of the experiment. […]
The panel holds about 83,000 compounds, 20% with a hit somewhere; the sample as a whole holds those more often. Calls of active or inactive are those of the source. How the source made its calls: active means growth percent below 10; inactive means the rest.
Permitted responses: true (active), false (inactive)

Lab log entry: Brc1cccc(-c2nc(-c3ccc4c(c3)OCCO4)co2)c1 — outcome as called in the assay?
false

Lab log entry: COc1ccc(-n2cc(-c3ccccc3)c3c(SCC(=O)N/N=C/c4ccc([N+](=O)[O-])cc4)ncnc32)cc1 — outcome as called in the assay?
false

Lab log entry: CN1CCN(Cc2ccc(NC(=O)c3[nH]ncc3Nc3ncnc4[nH]ccc34)cc2)CC1 — outcome as called in the assay?
true

Lab log entry: CCN(CC)Cc1cc(Nc2c3ccc(Cl)cc3nc3c(C)cccc23)ccc1O — outcome as called in the assay?
true

Lab log entry: O=C1C(=O)N(CCCCn2cc(CO)nn2)c2ccccc21 — outcome as called in the assay?
false

Lab log entry: O=C(O)c1cccc2c1-c1ccccc1C2=O — outcome as called in the assay?
false

Lab log entry: O=C(O)c1c([N+](=O)[O-])cnc2ccccc12 — outcome as called in the assay?
false

Lab log entry: Nc1ccc(N2CCOCC2)cc1 — outcome as called in the assay?
false

Lab log entry: CCOC(=O)c1cnc2ccc(Br)cc2c1Nc1cccc(S(=O)(=O)NC)c1 — outcome as called in the assay?
false

Lab log entry: O=C1CCc2c(sc3[nH]c(=S)n(Cc4ccccc4)c(=O)c23)C1 — outcome as called in the assay?
false

Lab log entry: N#Cc1c(N)nc(N)nc1Nc1ccc(Br)cc1 — outcome as called in the assay?
false

Lab log entry: O=C1NC(=O)C(CC(=O)n2c(-c3ccccc3)nc3ccccc32)C(=O)N1 — outcome as called in the assay?
false

Lab log entry: CC[C@H](Nc1cc(C)nc(N)n1)c1nc2cccc(NCc3ccc(C(=O)NO)cc3)c2c(=O)n1-c1ccccc1 — outcome as called in the assay?
true

Lab log entry: NS(=O)(=O)c1ccc(Nc2nc3n[nH]c(Nc4ccccc4)c3c(=O)[nH]2)cc1 — outcome as called in the assay?
false

Lab log entry: CCN1CCN(Cc2ccc(NC(=O)Nc3nc4ccc(Oc5ccnc(C(=O)NC)c5)cc4s3)cc2C(F)(F)F)CC1 — outcome as called in the assay?
true

Lab log entry: CC/C=C\C[C@H](O)C/C=C1/C(=O)C=C[C@@H]1C/C=C\CCCC(=O)NC — outcome as called in the assay?
false

Lab log entry: CCCCCCCCCCCCCCCC[N+]1(CC)CCCC1 — outcome as called in the assay?
true

Lab log entry: CC(=O)C1=C(O)C=C2Oc3c(C(=O)/C=C/c4ccccc4)c(O)c(C)c(O)c3[C@]2(C)C1=O — outcome as called in the assay?
false

Lab log entry: OCC1C2C=CC(C2)C1CO (stereo unspecified) — outcome as called in the assay?
false

Lab log entry: O=C(O)c1ccc(=O)[nH]n1 — outcome as called in the assay?
false

Lab log entry: COc1ccc(-c2cc(-c3cccnc3)nc3sc4c(=O)n(-c5ccc(C)cc5)cnc4c23)cc1OC — outcome as called in the assay?
false

Lab log entry: Cc1cc(=O)oc2cc(Oc3nc(-c4cccs4)cn4c(-c5cccs5)cnc34)ccc12 — outcome as called in the assay?
false

Lab log entry: COC(=S)SCN(CSC(=S)OC)c1ccc(Cl)cc1 — outcome as called in the assay?
false

Lab log entry: COC(=O)[C@H](C(C)C)n1c(=O)c2cc(OC)c(OC)cc2c2cnc3[nH]ccc3c21 — outcome as called in the assay?
false

Lab log entry: O=C1/C(=C/c2ccc(Cl)cc2Cl)CN(S(=O)(=O)c2ccccc2)C/C1=C\c1ccc(Cl)cc1Cl — outcome as called in the assay?
true

Lab log entry: Nc1ccc(Nc2nccc(-c3ccc4ccccc4c3)n2)cc1 — outcome as called in the assay?
false

Lab log entry: O=S(=O)(Nc1ccc(F)c(Cl)c1)c1ccc(-c2cnc(C3CC3)o2)cc1 — outcome as called in the assay?
false

Lab log entry: COc1ccccc1-c1ccc2c(N)c(C(=O)c3ccc4c(c3)OCO4)sc2n1 — outcome as called in the assay?
false

Lab log entry: C/C(Cc1ccc(Cl)cc1)=C(\c1ccc(OCCN2CCCCCC2)cc1)c1ccc(OC(=O)C2CCCCC2)cc1 — outcome as called in the assay?
false

Lab log entry: Cc1ccc(-c2nc(/C=N/Nc3cc(C)nc4ccc(Cl)cc34)c(C)o2)cc1 — outcome as called in the assay?
true

Lab log entry: CN1CCN(Cc2ccc(NC(=O)c3[nH]ncc3Nc3ccnc4ccsc34)cc2)CC1 — outcome as called in the assay?
false

Lab log entry: Nc1ccc2c(c1)C(=O)NC2=O — outcome as called in the assay?
false

Lab log entry: COc1cc2c(=O)n(CC3CCCCC3)c3c4cc[nH]c4ncc3c2cc1OC — outcome as called in the assay?
false

Lab log entry: COc1ccc2nc(NC(=O)c3cccnc3Nc3cc(OC)c(OC)c(OC)c3)sc2c1 — outcome as called in the assay?
true

Lab log entry: CCN(C(=O)CN1CCN(c2cc3c(cc2F)c(=O)c(C(=O)O)cn3CC)CC1)c1nc(-c2ccccc2)cs1 — outcome as called in the assay?
true

Lab log entry: CN(C)CCOc1ccc(-c2nc3ccc(-c4nc5ccc(N6CCN(C)CC6)cc5[nH]4)cc3[nH]2)cc1 — outcome as called in the assay?
false

Lab log entry: NC(N)=Nc1ccc(S(=O)(=O)O)cc1 — outcome as called in the assay?
false

Lab log entry: C/C(Cc1ccc(Cl)cc1)=C(\c1ccc(OCCN2CCCCCC2)cc1)c1ccc(OC(=O)Cc2ccccc2)cc1 — outcome as called in the assay?
false

Lab log entry: COc1cc(OC)c(/C=C/c2cc[n+](C)c3ccccc23)c(OC)c1 — outcome as called in the assay?
false

Lab log entry: COCCOc1ccc(-c2nc3ccc(-c4nc5ccc(N6CCN(C)CC6)cc5[nH]4)cc3[nH]2)cc1 — outcome as called in the assay?
true

Lab log entry: Cc1cccc(NC(=O)c2sc3nc4c(cc3c2N)C(=O)CCC4)c1 — outcome as called in the assay?
false
